Target: hGRX1 (Homo sapiens, UniProt P35754, C83S)
Sequence (P35754 whole entry C83S, looked up): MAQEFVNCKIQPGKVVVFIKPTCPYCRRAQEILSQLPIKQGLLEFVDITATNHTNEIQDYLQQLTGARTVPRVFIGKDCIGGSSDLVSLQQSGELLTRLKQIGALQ
Format: binding
Each entry gets f if its MaxRel.STD hGRX1 stays under 0.6%, and t if its MaxRel.STD hGRX1 is 0.6% or above.

• COCc1cc(=O)oc2cc(N)ccc12 [RK411] = t

Identify whether the reported MaxRel.STD hGRX1 of the following molecule is 0.6% or greater: O=C(O)c1ccc(-n2cccc2)cc1 [RK207]
f

Identify whether the reported MaxRel.STD hGRX1 of the following molecule is 0.6% or greater: COC(=O)c1cccc2cc[nH]c12 [RK028]
t

Identify whether the reported MaxRel.STD hGRX1 of the following molecule is 0.6% or greater: COCc1cc(=O)oc2cc(O)c(Cl)cc12 [RK450]
t

Identify whether the reported MaxRel.STD hGRX1 of the following molecule is 0.6% or greater: O=C(O)c1ccc(-c2cnco2)cc1 [RK036]
t

Identify whether the reported MaxRel.STD hGRX1 of the following molecule is 0.6% or greater: OCc1cc(-c2cccs2)[nH]n1 [RK126]
t
